assayed.system: T1, apelin receptor (AGTRL1) on CHO-K1 cells (UniProt P35414 1-380, limits assumed)
T1 sequence (looked up): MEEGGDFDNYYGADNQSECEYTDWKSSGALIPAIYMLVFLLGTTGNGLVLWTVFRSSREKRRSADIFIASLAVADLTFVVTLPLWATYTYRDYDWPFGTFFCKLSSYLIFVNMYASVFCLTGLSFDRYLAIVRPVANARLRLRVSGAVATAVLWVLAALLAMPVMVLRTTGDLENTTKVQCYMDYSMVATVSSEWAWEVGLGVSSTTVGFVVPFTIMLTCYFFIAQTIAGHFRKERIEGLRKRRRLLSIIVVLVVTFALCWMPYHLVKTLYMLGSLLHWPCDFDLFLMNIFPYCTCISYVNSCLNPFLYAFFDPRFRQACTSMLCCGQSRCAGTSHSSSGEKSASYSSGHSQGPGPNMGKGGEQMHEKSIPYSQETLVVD
assay.notes: cell-based or functional assay
reported.property: beta-Arrestin EC50 (nM) Exp. 2
Give the value in nM but do not write nM after it.

Prompt: Check the records and state beta-Arrestin EC50 (nM) Exp. 2 for ELA-E (Fc fusion) DKTHTSPPSPAPEAAGGPSVFLFPPKPKDTLMISRTPEVTCVVVDVSHEDPEVKFNWYVDGVEVHNAKTKPREEQYNSTYRVVSVLTVLHQDWLNGKEYKCKVSNKALPAPIEKTISKAKGQPREPQVYTLPPSREEMTKNQVNLTCLVKGFYPSDIAVEWESNGQPENNYKTTPPVLDSDGSFFLNSTLTVDKSRWQQGNVFSCSVMHEALHNHYTQKSLSLSPGKGGGGSGGGGSGGGGSKLRKHNCLQRRCMPLHRRVPFP
Response: 352

Cited source: patent US20240383958A1
